Provide the recorded pIC50 for the entries that follow.
Molecular target: full-length B-Catenin (Uniprot ID P35222) (Homo sapiens)
Construct: 10 nM full-length B-Catenin (Uniprot ID P35222)
Sequence (P35222 whole entry): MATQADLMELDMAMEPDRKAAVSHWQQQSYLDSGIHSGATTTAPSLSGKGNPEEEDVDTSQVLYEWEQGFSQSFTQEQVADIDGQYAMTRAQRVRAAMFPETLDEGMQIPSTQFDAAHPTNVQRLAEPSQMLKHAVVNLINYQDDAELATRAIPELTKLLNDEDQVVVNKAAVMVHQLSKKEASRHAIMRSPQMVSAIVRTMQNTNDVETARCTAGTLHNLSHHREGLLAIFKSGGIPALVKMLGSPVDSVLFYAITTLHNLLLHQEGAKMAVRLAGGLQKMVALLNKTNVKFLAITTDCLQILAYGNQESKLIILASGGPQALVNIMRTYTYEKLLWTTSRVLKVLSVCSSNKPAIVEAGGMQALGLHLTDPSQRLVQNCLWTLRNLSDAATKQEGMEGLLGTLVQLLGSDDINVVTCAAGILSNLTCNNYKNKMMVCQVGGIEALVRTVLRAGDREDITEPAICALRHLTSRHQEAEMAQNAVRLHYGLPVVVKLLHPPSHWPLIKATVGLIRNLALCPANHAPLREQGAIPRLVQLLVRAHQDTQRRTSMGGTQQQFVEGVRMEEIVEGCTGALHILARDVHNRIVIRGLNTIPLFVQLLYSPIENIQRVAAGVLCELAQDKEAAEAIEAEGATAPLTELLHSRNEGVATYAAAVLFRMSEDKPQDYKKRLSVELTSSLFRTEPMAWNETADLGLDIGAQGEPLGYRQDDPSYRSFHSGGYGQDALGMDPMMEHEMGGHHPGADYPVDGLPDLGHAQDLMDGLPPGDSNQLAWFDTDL
Type: binding
Details: read-out: beta-catenin TCF4 competition FP assay IC50
Answers are plain numbers, as −log10 of the molar value.

Known pIC50 results, listed for orientation:
substance | pIC50
Ac-PL3-Asp-Npg-B5-Asp-3COOHF-Aib-Ala-Phe-[pXyl]Cys-PyrS2-2F3MeF-BztA-Cys-Ala-NH2 [I-377] | 7.03
Ac-PL3-Asp-Npg-B5-Asp-3COOHF-Aib-Ala-Phe-[oXyl]Cys-PyrS2-2F3MeF-BztA-Cys-Ala-NH2 [I-376] | 6.66
Ac-PL3-Asp-Npg-B5-Asp-3COOHF-Aib-Ala-Phe-[3_3-biph]Cys-PyrS2-3Thi-BztA-Cys-Ala-NH2 [I-567] | 6.92

API: the following record is the query input.
Req: Report pIC50 for Ac-PL3-Asp-Npg-B5-Asp-3COOHF-Aib-Ala-Phe-[2_6-naph]Cys-PyrS2-3Thi-BztA-Cys-Ala-NH2 [I-566] please.
Resp: 7.24
